biological target: RAJI p110 δ (Homo sapiens, UniProt O00329); assay: RAJI p110 δ cellular assay (phospho-AKT);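 further: potency based on lowered phosphorylated AKT in RAJI cells, as a readout of PI3K-δ dependent B-cell receptor signaling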
Sequence (O00329 whole entry): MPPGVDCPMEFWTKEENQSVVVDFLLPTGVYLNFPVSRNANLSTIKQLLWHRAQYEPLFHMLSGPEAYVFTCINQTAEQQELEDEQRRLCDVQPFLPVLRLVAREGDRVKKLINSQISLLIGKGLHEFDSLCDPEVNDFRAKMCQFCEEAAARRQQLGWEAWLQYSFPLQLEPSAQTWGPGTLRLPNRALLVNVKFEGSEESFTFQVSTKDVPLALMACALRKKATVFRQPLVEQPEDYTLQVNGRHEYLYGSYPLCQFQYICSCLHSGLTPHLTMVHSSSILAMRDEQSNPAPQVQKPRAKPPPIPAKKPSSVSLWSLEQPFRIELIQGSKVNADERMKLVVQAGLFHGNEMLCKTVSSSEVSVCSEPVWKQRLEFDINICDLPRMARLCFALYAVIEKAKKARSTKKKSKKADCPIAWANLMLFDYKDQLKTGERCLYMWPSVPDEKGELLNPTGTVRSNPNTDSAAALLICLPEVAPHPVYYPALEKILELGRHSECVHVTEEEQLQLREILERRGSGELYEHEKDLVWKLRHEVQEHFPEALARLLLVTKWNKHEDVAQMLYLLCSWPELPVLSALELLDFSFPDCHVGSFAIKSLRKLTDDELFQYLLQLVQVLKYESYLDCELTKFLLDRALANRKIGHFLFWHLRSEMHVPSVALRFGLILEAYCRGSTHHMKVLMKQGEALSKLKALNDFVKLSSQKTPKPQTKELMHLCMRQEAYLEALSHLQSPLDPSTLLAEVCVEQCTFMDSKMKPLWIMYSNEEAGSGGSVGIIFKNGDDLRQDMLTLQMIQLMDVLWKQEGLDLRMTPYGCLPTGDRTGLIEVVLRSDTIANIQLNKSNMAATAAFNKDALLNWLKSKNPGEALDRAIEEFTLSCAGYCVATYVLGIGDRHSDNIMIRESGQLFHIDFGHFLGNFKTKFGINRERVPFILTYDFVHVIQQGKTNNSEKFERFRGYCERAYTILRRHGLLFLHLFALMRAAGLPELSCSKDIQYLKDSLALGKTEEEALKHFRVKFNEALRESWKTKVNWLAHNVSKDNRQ
Sequence (P27986 whole entry partner): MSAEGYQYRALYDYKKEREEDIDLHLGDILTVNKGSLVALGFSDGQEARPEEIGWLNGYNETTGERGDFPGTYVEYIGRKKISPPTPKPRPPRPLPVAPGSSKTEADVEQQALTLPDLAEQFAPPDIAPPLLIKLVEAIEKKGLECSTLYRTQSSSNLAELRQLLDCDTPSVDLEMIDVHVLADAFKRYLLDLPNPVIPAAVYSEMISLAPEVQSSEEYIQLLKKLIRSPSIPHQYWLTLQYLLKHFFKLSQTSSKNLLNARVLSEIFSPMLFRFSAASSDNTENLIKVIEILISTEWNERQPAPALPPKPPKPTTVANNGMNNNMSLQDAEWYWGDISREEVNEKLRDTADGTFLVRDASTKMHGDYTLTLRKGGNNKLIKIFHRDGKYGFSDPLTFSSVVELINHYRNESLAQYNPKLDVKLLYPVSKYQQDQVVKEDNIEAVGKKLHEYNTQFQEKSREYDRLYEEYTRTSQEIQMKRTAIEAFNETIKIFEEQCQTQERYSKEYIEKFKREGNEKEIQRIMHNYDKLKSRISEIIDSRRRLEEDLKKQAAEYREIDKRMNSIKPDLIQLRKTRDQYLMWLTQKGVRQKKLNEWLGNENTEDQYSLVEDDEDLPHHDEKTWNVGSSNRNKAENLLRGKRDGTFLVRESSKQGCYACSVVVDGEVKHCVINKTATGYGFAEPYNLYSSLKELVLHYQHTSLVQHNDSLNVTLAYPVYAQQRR
The following molecules are shown together with reported IC50 values.

| smiles-data | value-observed |
| --- | --- |
| COc1ccc(-c2cccc3cc([C@H](C)NC(=O)c4c(N)nn5cccnc45)n(-c4ccccc4)c(=O)c23)cn1 | < 100 nM |
| CC(=O)Nc1ccc(-c2cccc3cc([C@H](C)NC(=O)c4c(N)nn5cccnc45)n(-c4ccccc4)c(=O)c23)cc1 | < 100 nM |
| C[C@H](NC(=O)c1c(N)nn2cccnc12)c1cc2cccc(Cl)c2c(=O)n1-c1ccccc1 | < 100 nM |
| C[C@H](NC(=O)c1c(N)nn2cccnc12)c1cc2cccc(C#CCNS(C)(=O)=O)c2c(=O)n1-c1ccccc1 | 100 to 1000 nM |
| C[C@H](NC(=O)c1c(N)nn2cccnc12)c1cc2cccc(-c3ccn[nH]3)c2c(=O)n1-c1ccccc1 | 100 to 1000 nM |

stdin: Please list IC50 recorded for the molecule C[C@H](NC(=O)c1c(N)nn2cccnc12)c1cc2cccc(Cl)c2c(=O)n1-c1ccc(F)c(F)c1
stdout: 100 to 1000 nM

stdin: Provide only the value of recorded IC50 for C[C@H](NC(=O)c1c(N)nn2cccnc12)c1cc2cccc(CO)c2c(=O)n1-c1ccccc1
stdout: 100 to 1000 nM

---

target: RAJI p110 δ (Homo sapiens); experiment: RAJI p110 δ cellular assay (phospho-AKT)
Measured IC50 of individual entries

# count of solved cases: 4
| smiles-data | metric-name | value-observed |
| --- | --- | --- |
| C#Cc1cccc2cc([C@H](C)NC(=O)c3c(N)nn4cccnc34)n(-c3ccccc3)c(=O)c12 | IC50 | < 100 nM |
| C[C@H](NC(=O)c1nc(C#N)cnc1N)c1cc2cccc(Cl)c2c(=O)n1-c1ccccc1 | IC50 | < 100 nM |
| C[C@H](NC(=O)c1c(N)nn2cccnc12)c1cc2cccc(Cl)c2c(=O)n1-c1ccc(F)cc1 | IC50 | < 100 nM |
| Cc1ccn2nc(N)c(C(=O)N[C@@H](C)c3cc4cccc(Cl)c4c(=O)n3-c3ccccc3)c2n1 | IC50 | < 100 nM |

stdin: Note IC50 for the molecule shown: C[C@H](NC(=O)c1c(N)nn2cccnc12)c1cc2ccccc2c(=O)n1-c1ccccc1
stdout: 100 to 1000 nM

stdin: Give the reported value of IC50 for this record: C[C@H](NC(=O)c1c(N)nn2cccnc12)c1cc2cccc(C#CCCNC(=O)[C@H]3CCC(=O)O3)c2c(=O)n1-c1ccccc1
stdout: < 100 nM

stdin: Fill in IC50 for record CC(C)Oc1ccc(-c2cnc(N)c(C(=O)N[C@@H](C)c3cc4cccc(Cl)c4c(=O)n3-c3ccccc3)n2)cc1F
stdout: 1000 to 10000 nM

stdin: Indicate its recorded IC50; the molecule in question is C[C@H](NC(=O)c1nc(-c2cccc(NS(=O)(=O)C3CC3)c2)cnc1N)c1cc2cccc(Cl)c2c(=O)n1-c1ccccc1
stdout: < 100 nM

stdin: Using known records, supply IC50 for Cc1c([C@H](C)NC(=O)c2c(N)nn3cccnc23)n(-c2ccccc2)c(=O)c2c(F)cccc12
stdout: < 100 nM
